B1: Chromodomain-helicase-DNA-binding protein 7, residues 2564 to 2605; numbered along this chain, Q9P2D1 (parent)
chain: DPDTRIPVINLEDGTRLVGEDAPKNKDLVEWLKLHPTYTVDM

- Variants of: B1
- test description: abundance fitness (aPCA) (normalised: wild type 0, dead -1); higher = more abundant; growth selection in yeast, the domain comes from the species named
- measurement parameters: Homo sapiens
Decision: abundance fitness compared against -0.3; not below it gives rule met, below it gives rule not met.

>  <residue codes>
DPDTRIPVINLEDGTRLVGEDAPKNKDLVEWLKLHPTYTVDI [M42I]

>  <answer label>
rule met

$$$$
>  <residue codes>
DPDTRIPVINLEDGTRLVGEDAPKNKDLVEWLKCHPTYTVDM [L34C]

>  <answer label>
rule met

$$$$
>  <residue codes>
DPDTRIPVINLEDFTRLVGEDAPKNKDLVEWLKLHPTYTVDM [G14F]

>  <answer label>
rule met

$$$$
>  <residue codes>
DPDTRIPVIFLEDGTRLVGEDAPKNKDLVEWLKLHPTYTVDM [N10F]

>  <answer label>
rule not met

$$$$
>  <residue codes>
DPDTRIPVINLEDGTRLVGEDAPKNKDLVEWLKLHPTYHVDM [T39H]

>  <answer label>
rule met

$$$$
>  <residue codes>
DPDTRIPVINLEDGTRLVGTDAPKNKDLVEWLKLHPTYTVDM [E20T]

>  <answer label>
rule met

$$$$
>  <residue codes>
DPDTRIPVINLEDGTRLVGEDAPKNKDLVEWLKNHPTYTVDM [L34N]

>  <answer label>
rule met

$$$$
>  <residue codes>
DPDTRIPVINLEDGTRLVGEDAPKNKDLVEWLKLHQTYTVDM [P36Q]

>  <answer label>
rule not met

$$$$
>  <residue codes>
DPDTRIPVINLEDGTRLVGEDAPKNKALVEWLKLHPTYTVDM [D27A]

>  <answer label>
rule not met

$$$$
>  <residue codes>
DPDTRIPVINGEDGTRLVGEDAPKNKDLVEWLKLHPTYTVDM [L11G]

>  <answer label>
rule met

$$$$
>  <residue codes>
DPDTRIPVINLEDGTRLVGEDAPKNKDLVEWLKLHPTYTVDP [M42P]

>  <answer label>
rule not met

$$$$
>  <residue codes>
DPDTRIPVINLEDGTRLVGEDAPKNKDLVEWLKLDPTYTVDM [H35D]

>  <answer label>
rule not met

$$$$
>  <residue codes>
DPDTRIPVINLEDGTREVGEDAPKNKDLVEWLKLHPTYTVDM [L17E]

>  <answer label>
rule not met

$$$$
>  <residue codes>
DPDTRIPVINLEDGTRLVGEDAPKNKDLVEWLKLHSTYTVDM [P36S]

>  <answer label>
rule not met

$$$$
>  <residue codes>
DPDTRIPVINLEDGTRLVGEDAPKNKDLVEWLKLHPTYTVDQ [M42Q]

>  <answer label>
rule met

$$$$
>  <residue codes>
DPDTRIPVINLEDGTRLVMEDAPKNKDLVEWLKLHPTYTVDM [G19M]

>  <answer label>
rule not met

$$$$
>  <residue codes>
RPDTRIPVINLEDGTRLVGEDAPKNKDLVEWLKLHPTYTVDM [D1R]

>  <answer label>
rule not met

$$$$
>  <residue codes>
DPDTRIPVINLEDGTRLVGEDAPKNKDLVWWLKLHPTYTVDM [E30W]

>  <answer label>
rule not met

$$$$
>  <residue codes>
DPDTRDPVINLEDGTRLVGEDAPKNKDLVEWLKLHPTYTVDM [I6D]

>  <answer label>
rule met

$$$$
>  <residue codes>
DPDTRIPVINLEDGTRLVGEDAPKNKDLVEWLKLMPTYTVDM [H35M]

>  <answer label>
rule not met

$$$$
>  <residue codes>
DPDTRIPVINLEDGTRLVGEDAPKNKDLVEWLKLGPTYTVDM [H35G]

>  <answer label>
rule not met

$$$$
>  <residue codes>
DPDTRIPVINLEDGTRLHGEDAPKNKDLVEWLKLHPTYTVDM [V18H]

>  <answer label>
rule met

$$$$
>  <residue codes>
DPDTRIPFINLEDGTRLVGEDAPKNKDLVEWLKLHPTYTVDM [V8F]

>  <answer label>
rule not met

$$$$
>  <residue codes>
DPDTRIPVINLEDETRLVGEDAPKNKDLVEWLKLHPTYTVDM [G14E]

>  <answer label>
rule met

$$$$
>  <residue codes>
DPDTRIPVINLEDGTRLVGEDAPKNKDKVEWLKLHPTYTVDM [L28K]

>  <answer label>
rule not met

$$$$
>  <residue codes>
DPDTRIPVINLEDGTRLVGEDAPKNKDLVEWLKLHPTYTVHM [D41H]

>  <answer label>
rule not met

$$$$
>  <residue codes>
DPDTRIPVINTEDGTRLVGEDAPKNKDLVEWLKLHPTYTVDM [L11T]

>  <answer label>
rule met

$$$$
>  <residue codes>
DPDTRIPLINLEDGTRLVGEDAPKNKDLVEWLKLHPTYTVDM [V8L]

>  <answer label>
rule not met

$$$$
>  <residue codes>
DPDTRIPVINLEDGTRLVGEDAPSNKDLVEWLKLHPTYTVDM [K24S]

>  <answer label>
rule met

$$$$
